Molecular target: T1, human CRH receptor type 2 (human, UniProt Q13324 1-411)
T1 sequence (looked up): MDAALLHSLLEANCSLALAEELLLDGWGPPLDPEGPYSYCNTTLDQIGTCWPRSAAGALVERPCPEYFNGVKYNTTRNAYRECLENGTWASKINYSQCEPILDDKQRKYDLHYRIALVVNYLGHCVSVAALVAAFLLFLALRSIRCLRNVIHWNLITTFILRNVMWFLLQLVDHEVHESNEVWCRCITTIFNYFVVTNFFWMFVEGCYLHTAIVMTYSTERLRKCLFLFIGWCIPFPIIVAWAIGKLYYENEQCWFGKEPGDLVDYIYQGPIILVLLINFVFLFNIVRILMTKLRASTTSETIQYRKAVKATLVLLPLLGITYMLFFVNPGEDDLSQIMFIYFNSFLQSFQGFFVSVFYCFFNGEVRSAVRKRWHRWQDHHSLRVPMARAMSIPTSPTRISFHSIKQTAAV
Experiment: cell-based or functional assay
No end group written: not given here.
RESULT_TYPE: pA50, cAMP

Below are worked cases with known answers.
BINDER	pA50, cAMP
TKFTLSLDVPTNIMNLLFNIAKAKNLCAQAAANAHLMAQI-NH2 [Cys-variant CRHR2 peptide agonist, SEQ ID NO: 28]	9.36 -log M
TKFTLSLDVPTNIMNCLFNIAKAKNLRAQAAANAHLMAQI-NH2 [Cys-variant CRHR2 peptide agonist, SEQ ID NO: 17]	9.5 -log M
TKFTLSLDVPTNIMNLLFNIAKAKNLCAQAAANAHLMAQI (NES-PEG (about 20 kDa) on Cys 27; C-terminal amide) [Pegylated Cys-variant CRHR2 peptide agonist (NES linker, PEG about 20 kDa), SEQ ID NO: 81]	7.83 -log M
CKFTLSLDVPTNIMNLLFNIAKAKNLRAQAAANAHLMAQI-NH2 [Cys-variant CRHR2 peptide agonist, SEQ ID NO: 2]	8.97 -log M

The reported pA50, cAMP of the binder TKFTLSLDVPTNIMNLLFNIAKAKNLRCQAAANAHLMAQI (NES-PEG MW80000, branched, on Cys 28; C-terminal amide) [Pegylated Cys-variant CRHR2 peptide agonist (NES-PEG MW80000 & BRANCHED), SEQ ID NO: 101] was 7.84 -log M

The reported pA50, cAMP of the binder TKCTLSLDVPTNIMNLLFNIAKAKNLRAQAAANAHLMAQI (NES-PEG (about 20 kDa) on Cys 3; C-terminal amide) [Pegylated Cys-variant CRHR2 peptide agonist (NES linker, PEG about 20 kDa), SEQ ID NO: 57] was ~7.64 -log M

The reported pA50, cAMP of the binder TKFTLSLDVPTNIMNLLFNIAKAKNLRAQAACNAHLMAQI-NH2 [Cys-variant CRHR2 peptide agonist, SEQ ID NO: 33] was 9.07 -log M
